The origin of these recorded values is ChEMBL document CHEMBL1143274.

- METHOD NOTES: Distribution coefficient, log D of the compound
- Type: physicochemical
- TEST CONDITIONS: octanol/water
MEASURED PROPERTY: logD
Answers are plain numbers.

Q: logD lookup needed for CNC1=Nc2ccccc2C(c2ccccc2)=NC1c1cccs1 (stereo unspecified) , thanks.
A: 4.1

----------
- Tested on: Liver microsomes
- METHOD NOTES: Metabolic stability in human liver microsomes assessed as intrinsic clearance
- Assay type: ADME, Microsome
- Design: unit not given here
MEASURED PROPERTY: CL
Answers are plain numbers.

COMPOUND | MEASURED PROPERTY | MEASURED NUMBER
CNC1=Nc2ncccc2C(c2ccco2)=NC1c1sccc1Cl (configuration not stated) | CL | 74
CCCNC1=Nc2ccccc2C(c2ccccc2)=NC1c1cccs1 (configuration not stated) | CL | 30
CNC1=Nc2ncccc2C(C2CCCC2)=NC1c1cccs1 (configuration not stated) | CL | 59
CNC1=Nc2cncnc2C(c2ccccc2)=NC1c1cccs1 (configuration not stated) | CL | 36
CNC1=Nc2ncccc2C(c2cccs2)=NC1c1cccs1 (configuration not stated) | CL | 30
CNC1=Nc2ccccc2C(c2ccccc2)=NC1c1cccs1 (configuration not stated) | CL | 43

Could you tell me CL for each of these compounds? They are listed below.
1. CNC1=Nc2ncccc2C(c2cc[nH]c2)=NC1c1cccs1 (configuration not stated)
2. CNC1=Nc2ncccc2C(c2ccco2)=NC1c1ccco1 (configuration not stated)
3. c1ccc(C2=NC(c3cccs3)C(N3CCCC3)=Nc3ccccc32)cc1 (configuration not stated)

A:
1. 19
2. 9
3. 43
